- System: NCI-H226 lung
- method: NCI tumour cell line growth inhibition, 48 h
Tick met if TGI is 30 µM or greater. Tick not met if TGI is less than 30 µM.

compound	assigned label
COI1NC(=O)c2ccccc21	met
Cc1ccc(S(=O)(=O)NNCNC(=O)c2ccccc2)cc1	met
Cc1cc(N2CCOCC2)cc2[nH]c(-c3c(NC[C@@H](O)c4cccc(Cl)c4)cc[nH]c3=O)nc12	not met
OCC#Cc1ccccc1C#CCCCCCC#Cc1ccccc1C#CCO	met
N[C@H]1CCCC[C@@H]1N1C(=O)c2ccccc2C1(O)c1ccc(Cl)cc1 (stereo partly drawn)	met
O=c1c(O)c(-c2cc(O)c(O)c(O)c2)oc2cc(O)cc(O)c12	met
CN(C)CC/[N+]([O-])=C(/c1ccccc1)C12CC3CC(CC(C3)C1)C2	not met
C=C1C2C[C@@H]3O[C@H]4C[C@H]5O[C@@]6(C[C@@H]7O[C@]8(C[C@H](C)[C@@H]9O[C@@H]%10CC(CO)O[C@@H]%10C[C@@H]9O8)C[C@H](C)[C@@H]7O6)C[C@H]5O[C@H]4[C@H](C)[C@H]3OC(=O)C[C@H]3CC[C@@H]4OC5[C@H]6O[C@]7(CC[C@H]8CC(=C)[C@H](CC[C@@H](C[C@H]1C)O2)O8)CC6O[C@@H]5[C@@H](O7)[C@H]4O3 (stereo partly drawn)	not met

###

Here the recorded TGI is given for each entry.
- Test system: SNB-75 CNS
- method: NCI tumour cell line growth inhibition, 48 h

compound	target entity	comparison symbol	TGI (µM)
CCOc1ccc2nc(NC(=O)C(=O)C(c3cnc4ccccc4n3)[N+](=O)[O-])sc2c1 (stereo unspecified)	SNB-75 CNS	>	100
O=C1C[C@@H]2/C(=C(O)\C=C\c3ccccc3)C(=O)C=C[C@@H]2O1	SNB-75 CNS	=	5.78
O=C1CC(c2ccccc2)n2cccc21 (stereo unspecified)	SNB-75 CNS	>	100
CCOC(=O)c1ccc(N=c2sc3ccccc3nc2Nc2ccc(C(=O)OCC)cc2)cc1	SNB-75 CNS	>	100
BrC(c1cccc2ccccc12)c1cccc2ccccc12	SNB-75 CNS	=	29.1
C=C1CCC([N+](=O)[O-])[C@](C)(N=O)CC[C@@H]2C1CC2(C)C (stereo partly specified)	SNB-75 CNS	=	45.3
COI1NC(=O)c2ccccc21	SNB-75 CNS	>	100
COC(=O)c1c2cccccc-2c(Cc2c3cccccc-3c(C(=O)OC)c2O)c1O	SNB-75 CNS	>	100
CCN(CC)C(=O)C(C)n1cc(C)c(=O)[nH]c1=O (stereo unspecified)	SNB-75 CNS	=	98.6
COc1ccc(C(=O)/C=C/c2cc(O)c(O)c(F)c2F)c(OC)c1	SNB-75 CNS	=	79.5
O=C(NCCCCCCNC(=O)c1cc(-c2ccccc2)nc2ccccc12)c1cc(-c2ccccc2)nc2ccccc12	SNB-75 CNS	>	100

###

- System: MCF7 breast
- method: NCI tumour cell line growth inhibition, 48 h
quantity measured: GI50

chemical structure	quantity measured	measured
CCNC(=O)O[C@H]1CN[C@H](C#Cc2cc3ncnc(Nc4ccc(OCc5cccc(F)c5)c(Cl)c4)c3s2)C1	GI50	8950 nM
O=C(/C=C/c1ccc(C(F)(F)F)cc1)c1ccc(Nc2nc(NCCO)nc(Nc3ccc(Cl)cc3)n2)cc1	GI50	1490 nM
O=C1C(Cl)=C(NCc2ccco2)C(=O)c2ccccc21	GI50	2390 nM
CCN(CC)c1ccc(C(=O)c2ccc(N(CC)CC)cc2)cc1	GI50	416 nM
OCC#Cc1ccccc1C#CCCCCCC#Cc1ccccc1C#CCO	GI50	18500 nM

###

- Test system: NCI-H522 lung
- method: NCI tumour cell line growth inhibition, 48 h

compound	GI50
COc1cc(C2CC(c3ccc(Nc4ccnc5cc(Cl)ccc45)cc3)=NN2c2ccc(Cl)cc2)cc(OC)c1OC (configuration not stated)	1.85 µM
Oc1ccc2oc3ncc(Br)c(-c4ccccc4)c3c2c1	> 100 µM
C=C1C(=O)O[C@H]2[C@H]1CC/C(Cn1cc(-c3ccccc3C(F)(F)F)nn1)=C\CC[C@@]1(C)O[C@@H]21	1.38 µM
O=C(/C=C/c1ccc(C(F)(F)F)cc1)c1ccc(Nc2nc(NCCO)nc(Nc3ccc(Cl)cc3)n2)cc1	7.82 µM
NCCCNCCCCNC(=O)C(O)NC(=O)CCCCCCN=C(N)N (configuration not stated)	1350 µM
CCN(CC)c1ccc(C(=O)c2ccc(N(CC)CC)cc2)cc1	0.278 µM
CCOC(=O)c1c2c(n3ccccc13)C(=O)c1ncccc1C2=O	0.419 µM

###

- System: HCC-2998 colon
- method: NCI tumour cell line growth inhibition, 48 h
Form field: TGI (one value per entry).

compound	result units	comparison symbol	TGI
COC(=O)c1ccccc1C1CN=NC12Cc1cc(C)ccc1C2=O (configuration not stated)	µM	>	100
N#Cc1cnc(N)nc1NCC1(CO)CC(CCc2ccccc2)C1 (configuration not stated)	µM	>	100
COc1ccc(-c2ccc(-c3ccc(C(=N)N)o3)o2)cc1	µM	=	3.23
CCCCCCCc1cc2c3c(nc4ccccc42)C(=O)c2cccnc2-c3n1	µM	=	7.56
O=C(c1ccccc1)c1cn(/N=C\c2ccccc2)c(=O)nc1-c1ccccc1	µM	>	100
CCCCCCCCCCCCCCCCCCN(C)CC(COP(=O)([O-])OCC[N+](C)(C)C)OC (configuration not stated)	µM	=	24.2
O=C(NNC(=S)NC1CCCCC1)c1csc(NC(=S)NC2CCCCC2)n1	µM	=	14.5

###

Catalogue of TGI readings, one per entry.
- Tested on: CAKI-1 renal
- method: NCI tumour cell line growth inhibition, 48 h
quantity measured: TGI

compound	measured
CN(Cc1cc(C(C)(C)C)cc(Br)c1O)Cc1cc(C(C)(C)C)cc(Br)c1O	11.4 µM
COc1cccc(/C=N/C(/N=C/c2cccc(OC)c2O)c2cccc(OC)c2O)c1O	48.1 µM
COc1cc(-c2nc(SCCC(C)C)nc(Nc3ccc(S(N)(=O)=O)cc3)c2C#N)cc(OC)c1OC	> 100 µM
Cc1cccc(NC(=O)c2cccc([N+](=O)[O-])c2O)c1C	> 100 µM
O=C(NCCCCCCNC(=O)c1cc(-c2ccccc2)nc2ccccc12)c1cc(-c2ccccc2)nc2ccccc12	> 100 µM
COc1ccc(-c2cc3[nH]nc(N)c3c(=O)o2)cc1	> 100 µM
CC(C)(C)OC(=O)N1C(c2cccnc2)=CC[C@H]2C3CC=C(c4cccnc4)[C@@]3(C)CC[C@@H]21 (some centres undefined)	30.2 µM
C=CCc1cccc2cc(C(=O)Nc3ccccn3)c(=N)oc12	> 100 µM
O=c1/c(=C/c2ccc(-c3ccc(Cl)cc3Cl)o2)sc2n1[C@@H](c1ccc(Cl)cc1)C=C(c1cc(F)c(Cl)cc1Cl)N=2	> 100 µM

###

- Test system: A549 NSCLC
- method: NCI tumour cell line growth inhibition, 48 h; in the data active = GI50 below about 0.43 µM; inactive = the rest
Labels: active, inactive

molecule	target entity	assigned label
Oc1ccc2oc3ncc(Br)c(-c4ccccc4)c3c2c1	A549 NSCLC	inactive
Cc1cnc(C(=O)NNc2nc3sc4c(c3c(=O)n2C)C(C)CCC4)cn1 (configuration not stated)	A549 NSCLC	active
C#CCOc1cccc(Nc2ncnc3cc(NC(=O)CCl)ccc23)c1	A549 NSCLC	inactive
COc1cc(C2CC(c3ccc(Nc4ccnc5cc(Cl)ccc45)cc3)=NN2c2ccc(Cl)cc2)cc(OC)c1OC (configuration not stated)	A549 NSCLC	inactive
O=C1c2ccccc2-c2c1c1ccccc1c(=O)n2CCCn1ccnc1	A549 NSCLC	inactive
Cc1ncc(C(=O)Nc2ccc(CN3CCN(C)CC3)c(C(F)(F)F)c2)cc1C#Cc1cnc(N)cc1C#N	A549 NSCLC	inactive
O=C(OC[C@H]1O[C@H](OC(=O)c2cc(O)c(O)c(OC(=O)c3cc(O)c(O)c(O)c3)c2)[C@H](OC(=O)c2cc(O)c(O)c(OC(=O)c3cc(O)c(O)c(O)c3)c2)[C@@H](OC(=O)c2cc(O)c(O)c(OC(=O)c3cc(O)c(O)c(O)c3)c2)[C@@H]1OC(=O)c1cc(O)c(O)c(OC(=O)c2cc(O)c(O)c(O)c2)c1)c1cc(O)c(O)c(OC(=O)c2cc(O)c(O)c(O)c2)c1	A549 NSCLC	inactive

###

- Test system: SW-620 colon
- method: NCI tumour cell line growth inhibition, 48 h
quantity measured: TGI

compound	quantity measured	measured
CN(C)CCNC(=O)c1ccc(NC(=O)c2nc([N+](=O)[O-])cn2C)cc1	TGI	> 100 µM
NCCCNCCCCNC(=O)C(O)NC(=O)CCCCCCN=C(N)N (stereo unspecified)	TGI	> 5000 µM
N[C@H]1CCCC[C@@H]1N1C(=O)c2ccccc2C1(O)c1ccc(Cl)cc1 (stereo partly specified)	TGI	24.2 µM
COc1cc(C(O)(CC#N)c2cc3c(cc2Br)OCO3)cc(OC)c1OC (stereo unspecified)	TGI	> 100 µM
Cc1cc2c(C)nn(Cc3ccc(Cl)cc3)c2c(C#N)c1C	TGI	> 100 µM
Cc1cnc(C(=O)NNc2nc3sc4c(c3c(=O)n2C)C(C)CCC4)cn1 (stereo unspecified)	TGI	6.66 µM
Cc1cc(C)cc(NC(N)=S)c1	TGI	18 µM
O=C1c2ccccc2S(=O)(=O)c2cc(-c3nn[nH]n3)ccc21	TGI	> 100 µM
O=C(O)C1CC(O)CN1 (stereo unspecified)	TGI	> 100 µM
CCOC(=O)C(SCCO)C(C(=O)OCC)n1ccc(=O)[nH]c1=O (stereo unspecified)	TGI	46.8 µM
N#Cc1c(N)nc(Sc2ccccc2N)c(C#N)c1-c1ccc(Cl)cc1	TGI	> 100 µM
